test_target: Ct-FDH (carboxy-terminal ALDH domain of 10-formyltetrahydrofolate dehydrogenase, Aldh1l1) (Rattus norvegicus, UniProt P28037)
Sequence (P28037 400-902): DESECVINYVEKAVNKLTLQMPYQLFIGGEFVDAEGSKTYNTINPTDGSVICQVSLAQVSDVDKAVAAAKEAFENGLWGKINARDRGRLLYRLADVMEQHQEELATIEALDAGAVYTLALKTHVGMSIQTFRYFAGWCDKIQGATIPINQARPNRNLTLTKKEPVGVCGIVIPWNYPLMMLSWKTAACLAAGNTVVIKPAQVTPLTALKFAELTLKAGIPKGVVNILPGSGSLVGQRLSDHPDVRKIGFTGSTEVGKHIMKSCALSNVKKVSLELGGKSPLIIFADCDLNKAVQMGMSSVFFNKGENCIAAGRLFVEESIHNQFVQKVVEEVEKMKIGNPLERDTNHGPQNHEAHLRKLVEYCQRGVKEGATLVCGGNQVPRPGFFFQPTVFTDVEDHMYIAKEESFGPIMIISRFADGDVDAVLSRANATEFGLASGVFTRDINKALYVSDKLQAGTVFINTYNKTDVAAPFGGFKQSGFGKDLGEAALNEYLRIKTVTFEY
readout_kind: Kd
Please append the unit to your numeric answer.

Look at this molecule and give its reported Kd. NC(=S)c1ccc[n+]([C@@H]2O[C@H](COP(=O)(O)OP(=O)(O)OC[C@H]3O[C@@H](n4cnc5c(N)ncnc54)[C@H](OP(=O)(O)O)[C@@H]3O)[C@@H](O)[C@H]2O)c1 [thio-NADP^+]
17 µM

---

test_target: Ct-FDH (carboxy-terminal ALDH domain of 10-formyltetrahydrofolate dehydrogenase, Aldh1l1) (Rattus norvegicus, UniProt P28037, C707S)
Sequence (P28037 400-902 C707S): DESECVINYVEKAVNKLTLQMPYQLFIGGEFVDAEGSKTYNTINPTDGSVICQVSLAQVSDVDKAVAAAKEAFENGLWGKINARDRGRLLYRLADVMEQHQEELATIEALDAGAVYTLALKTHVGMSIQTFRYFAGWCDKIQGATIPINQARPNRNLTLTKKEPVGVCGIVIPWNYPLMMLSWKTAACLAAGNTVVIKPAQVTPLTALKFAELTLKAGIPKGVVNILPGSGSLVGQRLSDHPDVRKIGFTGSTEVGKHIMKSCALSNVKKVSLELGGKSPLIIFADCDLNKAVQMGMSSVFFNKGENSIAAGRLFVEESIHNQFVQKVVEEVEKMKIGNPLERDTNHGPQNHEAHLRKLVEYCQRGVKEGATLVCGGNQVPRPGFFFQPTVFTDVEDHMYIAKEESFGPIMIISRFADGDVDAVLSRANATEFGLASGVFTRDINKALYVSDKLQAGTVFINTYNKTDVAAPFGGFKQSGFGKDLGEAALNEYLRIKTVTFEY
protocol_summary: quenching of tryptophan fluorescence
readout_kind: Kd (µM)
Supply the numeric figure in µM, leaving out any unit text.

Look at this molecule and give its reported Kd. `NC(=O)c1ccc[n+]([C@@H]2O[C@H](COP(=O)(O)OP(=O)(O)OC[C@H]3O[C@@H](n4cnc5c(N)ncnc54)[C@H](OP(=O)(O)O)[C@@H]3O)[C@@H](O)[C@H]2O)c1`
11
